target desc: D(1A) dopamine receptor (Bos taurus, UniProt Q95136)
Sequence (Q95136 whole entry): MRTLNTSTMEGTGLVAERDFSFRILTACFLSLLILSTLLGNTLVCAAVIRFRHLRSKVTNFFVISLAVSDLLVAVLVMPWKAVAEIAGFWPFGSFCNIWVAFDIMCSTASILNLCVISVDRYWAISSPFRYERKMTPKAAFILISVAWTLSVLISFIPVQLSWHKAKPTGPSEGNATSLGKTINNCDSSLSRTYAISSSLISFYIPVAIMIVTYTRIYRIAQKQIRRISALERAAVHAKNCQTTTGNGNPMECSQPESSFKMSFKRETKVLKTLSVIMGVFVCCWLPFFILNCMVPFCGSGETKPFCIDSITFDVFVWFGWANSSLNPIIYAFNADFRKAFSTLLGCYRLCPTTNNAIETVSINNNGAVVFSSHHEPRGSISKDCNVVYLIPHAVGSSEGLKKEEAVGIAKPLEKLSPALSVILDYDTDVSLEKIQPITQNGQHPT
assay procedure: Binding affinity towards dopamine receptor D1 in calf striatum
Format: tissue-based
pIC50: −log10 of the molar value.
experimental readout: pIC50

molecule: CCCN(CCCCN1C(=O)CC2(CCCC2)CC1=O)C1COc2cccc(OC)c2C1.O=C(O)C(=O)O (stereo in doubt; 9g)
pIC50: 4.40

molecule: O=C1CC2(CCCC2)CC(=O)N1CCCCN1CCN(c2ncccn2)CC1 [BUSPIRONE]
pIC50: 4.57

molecule: CCCN(CCCCNS(=O)(=O)c1ccc(C)cc1)C1COc2cccc(OC)c2C1 (stereo in doubt; 15d)
pIC50: 4.52

molecule: CCCN(CCNS(=O)(=O)c1ccc(C)cc1)C1COc2cccc(OC)c2C1 (stereo in doubt; 15b)
pIC50: 4.30

molecule: COc1cccc2c1CC(NCCCCN1C(=O)CC3(CCCC3)CC1=O)CO2 (centres undefined)
pIC50: 4.70

I: CCCN(CCCCN1C(=O)C2CCCC2C1=O)C1COc2cccc(OC)c2C1 (single isomer, unassigned; (+))
II: COc1cccc2c1CC(NCCCCN1C(=O)c3ccccc3C1=O)CO2 (centres undefined)
## Input I would appreciate it if you could say which entry, I or II , has the lower pIC50 value. Mark your answer with the label of the selected entry.
## Output I
(I: 4.30, II: 4.52)

###

target desc: 5-hydroxytryptamine receptor 1A (Rattus norvegicus, UniProt P19327)
Sequence (P19327 whole entry): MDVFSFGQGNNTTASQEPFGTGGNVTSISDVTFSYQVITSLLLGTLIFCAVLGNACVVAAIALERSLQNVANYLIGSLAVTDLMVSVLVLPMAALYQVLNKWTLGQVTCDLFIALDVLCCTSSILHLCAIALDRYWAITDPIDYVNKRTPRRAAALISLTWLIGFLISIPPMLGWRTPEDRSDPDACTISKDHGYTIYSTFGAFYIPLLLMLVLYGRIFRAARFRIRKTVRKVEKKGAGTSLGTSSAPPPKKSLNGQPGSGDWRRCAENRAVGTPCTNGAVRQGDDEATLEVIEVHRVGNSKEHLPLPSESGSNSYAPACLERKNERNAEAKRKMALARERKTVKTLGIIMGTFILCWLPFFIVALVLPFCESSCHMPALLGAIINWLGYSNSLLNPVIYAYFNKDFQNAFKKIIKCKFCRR
assay procedure: Binding affinity against 5-hydroxytryptamine 1A (5-HT1A) receptor in rat hippocampus membranes
Type: cell membranes, Membrane
experimental readout: IC50 (nM)

Below, each entry is followed by its recorded IC50 result.
molecule: CCCN(CCCCN1C(=O)C2CCCC2C1=O)C1COc2cccc(OC)c2C1 (single isomer, unassigned; (+))
reported measurement: 8
//
molecule: CCCN(CCNS(=O)(=O)c1ccc(C)cc1)C1COc2cccc(OC)c2C1 (stereo in doubt; (-)-15b)
reported measurement: 5
//
molecule: CCCN(CCCCN1C(=O)C2CCCC2C1=O)C1COc2cccc(OC)c2C1 (single isomer, unassigned; (-))
reported measurement: 1

a: COc1cccc2c1CC(NCCCCN1C(=O)CC3(CCCC3)CC1=O)CO2 (stereo not given)
b: CCCN(CCCN1C(=O)CC2(CCCC2)CC1=O)C1COc2cccc(OC)c2C1 (stereo not given)
c: CCCN(CCCCN1C(=O)CC2(CCCC2)CC1=O)C1COc2ccccc2C1 (stereo not given)
d: O=C1c2ccccc2S(=O)(=O)N1CCCCN1CCN(c2ncccn2)CC1
e: CCCN(CCCN1C(=O)c2ccccc2C1=O)C1COc2cccc(OC)c2C1 (stereo not given)
## Input Ascending sort, IC50. # the answer lists labels in the order requested
## Output b, c, a, d, e

P: CCCN(CCCCNS(=O)(=O)c1ccc(C)cc1)C1COc2cccc(OC)c2C1 (single isomer, unassigned; (-))
Q: CCCN(CCN1C(=O)CC2(CCCC2)CC1=O)C1COc2cccc(OC)c2C1 (stereo not given)
## Input I would appreciate it if you could say which entry, P or Q , has the lower IC50 value. Mark your answer with the label of the selected entry.
## Output P
(P: 20 nM, Q: 30 nM)

###

target desc: UniProt:P18130
Sequence (P18130 whole entry): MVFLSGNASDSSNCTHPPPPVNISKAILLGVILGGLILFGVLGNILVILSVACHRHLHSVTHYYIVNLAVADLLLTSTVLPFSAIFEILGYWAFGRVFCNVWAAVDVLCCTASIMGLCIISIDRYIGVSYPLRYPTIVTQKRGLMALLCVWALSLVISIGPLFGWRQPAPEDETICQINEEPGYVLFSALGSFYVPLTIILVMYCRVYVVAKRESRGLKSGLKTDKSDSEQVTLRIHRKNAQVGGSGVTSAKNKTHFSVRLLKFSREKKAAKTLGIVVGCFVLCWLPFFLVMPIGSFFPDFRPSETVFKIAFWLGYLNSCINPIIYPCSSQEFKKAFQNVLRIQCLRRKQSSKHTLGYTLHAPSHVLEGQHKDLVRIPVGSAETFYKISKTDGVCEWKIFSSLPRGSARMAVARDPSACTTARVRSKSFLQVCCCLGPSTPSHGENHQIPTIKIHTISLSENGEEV
pIC50: −log10 of the molar value.
experimental readout: pIC50

molecule: CCC[N+](C)(CCCCN1C(=O)CC2(CCCC2)CC1=O)C1COc2cccc(OC)c2C1 (centres undefined)
pIC50: 4.15

A: CCCN(CCNS(=O)(=O)c1ccc(C)cc1)C1COc2cccc(OC)c2C1 (single isomer, unassigned; (+))
B: CCCN(CCCCNS(=O)(=O)c1ccc(C)cc1)C1COc2cccc(OC)c2C1 (stereo in doubt; 15d)
C: CCCN(CCCCN1C(=O)CC2(CCCC2)CC1=O)C1COc2cccc(OC)c2C1.O=C(O)C(=O)O (single isomer, unassigned; (-))
D: CCCN(CCCCN1C(=O)c2ccccc2C1=O)C1COc2cccc(OC)c2C1 (centres undefined)
E: COc1cccc2c1CC(NCCCCN1C(=O)CC3(CCCC3)CC1=O)CO2 (centres undefined)
## Input Sort these molecules on pIC50 so the largest reading comes first. # the answer lists labels in the order requested
## Output B, D, E, C, A

1: CCCN(CCCCNS(=O)(=O)c1ccc(C)cc1)C1COc2cccc(OC)c2C1 (single isomer, unassigned; (+))
2: CCCN(CCNS(=O)(=O)c1ccc(C)cc1)C1COc2cccc(OC)c2C1 (stereo in doubt; 15b)
## Input Which of the two items, 1 and 2 , has the greater recorded pIC50? Mark your answer with the label of the selected entry.
## Output 1

I: CCCN(CCCCN1C(=O)CC2(CCCC2)CC1=O)C1COc2cccc(OC)c2C1.O=C(O)C(=O)O (stereo in doubt; 9g)
II: CCCN(CCCCN1C(=O)CC2(CCCC2)CC1=O)C1COc2cccc(OC)c2C1.O=C(O)C(=O)O (single isomer, unassigned; (+))
## Input I would appreciate it if you could say which entry, I or II , has the lower pIC50 value. Mark your answer with the label of the selected entry.
## Output II
